Data provenance: paper PMC9360328

Target: SRY HMG box Y72H (Y127H) (Homo sapiens, UniProt Q05066 56-141, Y127H)
Sequence (Q05066 56-141 Y127H): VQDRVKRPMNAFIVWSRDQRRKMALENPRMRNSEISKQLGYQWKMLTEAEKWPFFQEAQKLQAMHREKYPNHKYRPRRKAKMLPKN
Experiment: FRET titration; 15 C, 25 nM DNA; FRET titration: 10 mM potassium phosphate, 10 mM Tris-HCl, 140 mM KCl, 1 mM EDTA, 1 mM DTT, pH 8.4, 15 C, 25 nM DNA; PGE: 10 nM DNA, 20 nM protein, 0.5x TBE, 4
Conditions: protein: recombinant; label: 5'-6-FAM (hexanyl linker) on upper strand; 5'-TAMRA (hexanyl linker) on lower strand; blunt
Quantity Name: pKd
Friendly reminder that pKd comes from taking -log10 of the concentration in mol/L.

Please look up its pKd: 15-bp consensus SRY site, FRET-labeled (dsDNA) DNA 1: TCGGTGATTGTTCAG DNA 2: CTGAACAATCACCGA
7.72
